Origin of values: patent US20150119373A1

// reported viability at 1000 nM for each item listed
test.name: Cyto-toxicity assay (MTT) in MT2 cells without virus
Assay type: cell-based
cond: human
observation.type: viability at 1000 nM (%)

chemical.smiles	observation.type	assay.value
CC1([C@@H]2CC[C@]3(C(=O)N4CCOCC4)CC[C@]4(C)[C@H](CC[C@@H]5[C@@]6(C)CC[C@H](OC(=O)[C@H]7C[C@@H](C(=O)O)C7(C)C)C(C)(C)[C@@H]6CC[C@]54C)[C@@H]23)CC1	viability at 1000 nM	78
CC(C)(CC(=O)O[C@H]1CC[C@]2(C)[C@H]3CC[C@@H]4[C@H]5[C@H](C6(C)CC6)CC[C@]5(C(=O)N5CCOCC5)CC[C@@]4(C)[C@]3(C)CC[C@H]2C1(C)C)C(=O)O	viability at 1000 nM	94

----------
test.name: Single dose oral pharmacokinetic study in mice
Format: in vivo
cond: mouse, plasma; Oral PK @ 30 mg/ kg dose in mice (Table 6); read-out: AUCt
// reported AUC(0-t) for each item listed

chemical.smiles	AUC(0-t) / µg·h/mL
CC1([C@@H]2CC[C@]3(C(=O)N4CCN(CCCN5CCOCC5)CC4)CC[C@]4(C)[C@H](CC[C@@H]5[C@@]6(C)CC[C@H](OC(=O)[C@H]7C[C@@H](C(=O)O)C7(C)C)C(C)(C)[C@@H]6CC[C@]54C)[C@@H]23)CC1	214
[2H]C([2H])([2H])C(CC(=O)O[C@H]1CC[C@]2(C)[C@H]3CC[C@@H]4[C@H]5[C@H](C6(C)CC6)CC[C@]5(C(=O)N[C@@H]5C[C@H](C(=O)N6CCCCC6)C5(C)C)CC[C@@]4(C)[C@]3(C)CC[C@H]2C1(C)C)(C(=O)O)C([2H])([2H])[2H]	63.9

----------
test.name: Single dose oral pharmacokinetic study in mice
Assay type: in vivo
cond: mouse, plasma; Oral PK @ 30 mg/ kg dose in mice (Table 6)

compound	unit.of.measurement	Cmax
CC1([C@@H]2CC[C@]3(C(=O)N4CCOCC4)CC[C@]4(C)[C@H](CC[C@@H]5[C@@]6(C)CC[C@H](OC(=O)[C@H]7C[C@@H](C(=O)O)C7(C)C)C(C)(C)[C@@H]6CC[C@]54C)[C@@H]23)CC1 [Example 28]	ng/mL	4500
COCCOC1CCN(C(=O)[C@]23CC[C@@H](C4(C)CC4)[C@@H]2[C@H]2CC[C@@H]4[C@@]5(C)CC[C@H](OC(=O)[C@H]6C[C@@H](C(=O)O)C6(C)C)C(C)(C)[C@@H]5CC[C@@]4(C)[C@]2(C)CC3)CC1 [Example 42]	ng/mL	7400
C=C(C)[C@@H]1CC[C@]2(C(=O)N[C@@H]3C[C@H](c4nnc(C)o4)C3(C)C)CC[C@]3(C)[C@H](CC[C@@H]4[C@@]5(C)CC[C@H](OC(=O)[C@H]6C[C@@H](C(=O)O)C6(C)C)C(C)(C)[C@@H]5CC[C@]43C)[C@@H]12 [Example 21]	ng/mL	5900
[2H]C([2H])([2H])C(CC(=O)O[C@H]1CC[C@]2(C)[C@H]3CC[C@@H]4[C@H]5[C@H](C6(C)CC6)CC[C@]5(C(=O)N5CCN(CC)CC5)CC[C@@]4(C)[C@]3(C)CC[C@H]2C1(C)C)(C(=O)O)C([2H])([2H])[2H] [Example 30]	ng/mL	4700
CCN1CCN(C(=O)[C@]23CC[C@@H](C4(C)CC4)[C@@H]2[C@H]2CC[C@@H]4[C@@]5(C)CC[C@H](OC(=O)CC(C)(C)CC(=O)O)C(C)(C)[C@@H]5CC[C@@]4(C)[C@]2(C)CC3)CC1 [Example 26]	ng/mL	6900
CC1([C@@H]2CC[C@]3(C(=O)N[C@@H]4C[C@H](C(=O)N5CCCCC5)C4(C)C)CC[C@]4(C)[C@H](CC[C@@H]5[C@@]6(C)CC[C@H](OC(=O)[C@H]7C[C@@H](C(=O)O)C7(C)C)C(C)(C)[C@@H]6CC[C@]54C)[C@@H]23)CC1 [Example 23]	ng/mL	11000

----------
// reported AUC(0-t) for each item listed
test.name: Single dose oral pharmacokinetic study in mice
Type: in vivo
cond: mouse, plasma; Oral PK @ 30 mg/ kg dose in mice (Table 6); read-out: AUCt

chemical.smiles	unit.of.measurement	AUC(0-t)
CC(C)(CC(=O)O[C@H]1CC[C@]2(C)[C@H]3CC[C@@H]4[C@H]5[C@H](C6(C)CC6)CC[C@]5(C(=O)N5CCC(C#N)(c6ccccc6)CC5)CC[C@@]4(C)[C@]3(C)CC[C@H]2C1(C)C)C(=O)O	µg·h/mL	95.5
CC(C)(CC(=O)O[C@H]1CC[C@]2(C)[C@H]3CC[C@@H]4[C@H]5[C@H](C6(C)CC6)CC[C@]5(C(=O)N5CCOCC5)CC[C@@]4(C)[C@]3(C)CC[C@H]2C1(C)C)C(=O)O	µg·h/mL	101
CC1([C@@H]2CC[C@]3(C(=O)N4CCOCC4)CC[C@]4(C)[C@H](CC[C@@H]5[C@@]6(C)CC[C@H](OC(=O)[C@H]7C[C@@H](C(=O)O)C7(C)C)C(C)(C)[C@@H]6CC[C@]54C)[C@@H]23)CC1	µg·h/mL	171
CC1([C@@H]2CC[C@]3(C(=O)N[C@@H]4C[C@H](C(=O)N5CCCCC5)C4(C)C)CC[C@]4(C)[C@H](CC[C@@H]5[C@@]6(C)CC[C@H](OC(=O)[C@H]7C[C@@H](C(=O)O)C7(C)C)C(C)(C)[C@@H]6CC[C@]54C)[C@@H]23)CC1	µg·h/mL	324

----------
// reported AUC(0-inf) for each item listed
test.name: Single dose oral pharmacokinetic study in mice
Assay type: in vivo
cond: mouse, plasma; Oral PK @ 30 mg/ kg dose in mice (Table 6)
observation.type: AUC(0-inf) (µg·h/mL)

molecule	observation.type	assay.value
CC(C)(CC(=O)O[C@H]1CC[C@]2(C)[C@H]3CC[C@@H]4[C@H]5[C@H](C6(C)CC6)CC[C@]5(C(=O)N5CCC(C(=O)NCCN6CCOCC6)CC5)CC[C@@]4(C)[C@]3(C)CC[C@H]2C1(C)C)C(=O)O [Example 49]	AUC(0-inf)	38.8
CC1([C@@H]2CC[C@]3(C(=O)N4CCN(CCCN5CCOCC5)CC4)CC[C@]4(C)[C@H](CC[C@@H]5[C@@]6(C)CC[C@H](OC(=O)[C@H]7C[C@@H](C(=O)O)C7(C)C)C(C)(C)[C@@H]6CC[C@]54C)[C@@H]23)CC1 [Example 34]	AUC(0-inf)	240
CC1([C@@H]2CC[C@]3(C(=O)N[C@@H]4C[C@H](C(=O)N5CCCCC5)C4(C)C)CC[C@]4(C)[C@H](CC[C@@H]5[C@@]6(C)CC[C@H](OC(=O)[C@H]7C[C@@H](C(=O)O)C7(C)C)C(C)(C)[C@@H]6CC[C@]54C)[C@@H]23)CC1 [Example 23]	AUC(0-inf)	628
CC(C)(CC(=O)O[C@H]1CC[C@]2(C)[C@H]3CC[C@@H]4[C@H]5[C@H](C6(C)CC6)CC[C@]5(C(=O)N5CCN(CCN6CCOCC6)CC5)CC[C@@]4(C)[C@]3(C)CC[C@H]2C1(C)C)C(=O)O [Example 31]	AUC(0-inf)	240

----------
// reported viability at 1000 nM for each item listed
test.name: Cyto-toxicity assay (MTT) in MT2 cells without virus
Format: cell-based
cond: human
Description: For cyto-toxicity assay the same amount of MT2 cells as in antiviral assay without virus was added to the 96 well plates. The cyto-toxicity was measured using MTT reagent in parallel with p24 estimation. The percent viability is calculated in comparison with vehicle control.
observation.type: viability at 1000 nM

chemical.smiles	observation.type	assay.value
CC(C)(CC(=O)O[C@H]1CC[C@]2(C)[C@H]3CC[C@@H]4[C@H]5[C@H](C6(C)CC6)CC[C@]5(C(=O)N5CCN(C(=O)C(C)(CO)CO)CC5)CC[C@@]4(C)[C@]3(C)CC[C@H]2C1(C)C)C(=O)O	viability at 1000 nM	81%
CCN1CCN(C2CCN(C(=O)[C@]34CC[C@@H](C5(C)CC5)[C@@H]3[C@H]3CC[C@@H]5[C@@]6(C)CC[C@H](OC(=O)[C@H]7C[C@@H](C(=O)O)C7(C)C)C(C)(C)[C@@H]6CC[C@@]5(C)[C@]3(C)CC4)CC2)CC1	viability at 1000 nM	90%

----------
// reported viability at 1000 nM for each item listed
test.name: Cyto-toxicity assay (MTT) in MT2 cells without virus
Type: cell-based
cond: human
observation.type: viability at 1000 nM (%)

chemical.smiles	observation.type	assay.value
CC(C)(CC(=O)O[C@H]1CC[C@]2(C)[C@H]3CC[C@@H]4[C@H]5[C@H](C6(C)CC6)CC[C@]5(C(=O)N5CCCCC5)CC[C@@]4(C)[C@]3(C)CC[C@H]2C1(C)C)C(=O)O	viability at 1000 nM	99
C=C(C)[C@@H]1CC[C@]2(c3nnc(-c4ccccc4)o3)CC[C@]3(C)[C@H](CC[C@@H]4[C@@]5(C)CC[C@H](OC(=O)[C@H]6[C@@H](CC(=O)O)C6(C)C)C(C)(C)[C@@H]5CC[C@]43C)[C@@H]12	viability at 1000 nM	98
CC(CO)(CO)C(=O)N1CCN(C(=O)[C@]23CC[C@@H](C4(C)CC4)[C@@H]2[C@H]2CC[C@@H]4[C@@]5(C)CC[C@H](OC(=O)[C@H]6C[C@@H](C(=O)O)C6(C)C)C(C)(C)[C@@H]5CC[C@@]4(C)[C@]2(C)CC3)CC1	viability at 1000 nM	90
CC1([C@@H]2CC[C@]3(C(=O)N4CCN(CCN5CCOCC5)CC4)CC[C@]4(C)[C@H](CC[C@@H]5[C@@]6(C)CC[C@H](OC(=O)[C@H]7C[C@@H](C(=O)O)C7(C)C)C(C)(C)[C@@H]6CC[C@]54C)[C@@H]23)CC1	viability at 1000 nM	95
